# tested_target: T1, human MSLN-FL-his protein (human, UniProt Q13421 296-580)
# T1 construct: Made in HEK293E cells, purified on nickel column; also called hMSLN-FL-his; human MSLN full-length protein; not shown: His tag
# T1 sequence (Q13421 other isoform, or with tags, fused parts or gaps): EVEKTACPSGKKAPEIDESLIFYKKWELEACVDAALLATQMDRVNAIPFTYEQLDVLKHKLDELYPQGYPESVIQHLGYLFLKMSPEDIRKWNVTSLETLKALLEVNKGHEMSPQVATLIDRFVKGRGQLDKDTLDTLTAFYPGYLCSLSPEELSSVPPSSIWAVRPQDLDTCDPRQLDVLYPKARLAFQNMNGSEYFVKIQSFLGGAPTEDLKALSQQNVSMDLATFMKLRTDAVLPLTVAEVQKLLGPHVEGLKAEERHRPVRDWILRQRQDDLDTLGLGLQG
# protocol_text: ELISA, coated antigen, antibody 2 nM
property_name: OD450

Observe how each entry below is paired with its result.
# binder, OD450
measured = [
    ("S009-F7.26.15 chimeric antibody (antibody, human IgG1, kappa, V domains shown, Human-murine chimeric antibody, human IgG1/kappa constant regions) VH: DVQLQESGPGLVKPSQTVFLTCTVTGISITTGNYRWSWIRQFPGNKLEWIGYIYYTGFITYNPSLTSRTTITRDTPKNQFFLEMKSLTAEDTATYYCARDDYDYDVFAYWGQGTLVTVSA VL: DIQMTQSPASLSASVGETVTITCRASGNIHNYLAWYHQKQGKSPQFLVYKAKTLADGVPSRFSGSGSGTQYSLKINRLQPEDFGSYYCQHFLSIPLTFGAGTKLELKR", 2.43),
    ("S009-F7.18.10 chimeric antibody (antibody, human IgG1, kappa, V domains shown, Human-murine chimeric antibody, human IgG1/kappa constant regions) VH: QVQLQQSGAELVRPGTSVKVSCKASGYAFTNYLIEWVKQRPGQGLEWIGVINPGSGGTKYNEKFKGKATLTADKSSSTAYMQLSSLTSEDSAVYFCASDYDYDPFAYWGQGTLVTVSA VL: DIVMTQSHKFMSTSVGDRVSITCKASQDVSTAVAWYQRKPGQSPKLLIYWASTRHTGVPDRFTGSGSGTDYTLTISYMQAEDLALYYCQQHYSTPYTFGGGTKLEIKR", 2.28),
]

Form field OD450, entry S009-F7.53.2 chimeric antibody (antibody, human IgG1, kappa, V domains shown, Human-murine chimeric antibody, human IgG1/kappa constant regions) VH: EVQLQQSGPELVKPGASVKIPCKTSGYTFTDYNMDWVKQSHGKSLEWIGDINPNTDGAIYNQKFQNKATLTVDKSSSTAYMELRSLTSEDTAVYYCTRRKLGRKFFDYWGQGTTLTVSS VL: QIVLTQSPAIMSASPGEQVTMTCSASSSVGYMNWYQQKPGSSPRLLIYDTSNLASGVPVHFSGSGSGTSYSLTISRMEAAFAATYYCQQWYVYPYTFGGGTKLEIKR : 2.1
